Values were extracted from patent US20070059756A1.

Listed here are sequences together with their documented Oligoclonal proliferative response.
test system: latex specific T cell lines; assay: Oligoclonal T cell proliferation assay (3H-thymidine incorporation); format: cell-based, human; conditions: P3 T cell line; antigen 30 μg/ml; 4 day cultures

- chain: "AEEEKPITEAAETATTEVPV [Hev b 5 (127-146)]"
  Oligoclonal proliferative response: "8.3 counts per minute × 10^−3"
- chain: "ASEQETADATPEKEEPTAAP [Hev b 5 (37-56)]"
  Oligoclonal proliferative response: "2.7 counts per minute × 10^−3"
- chain: "APAEPEAPAPETEKAEEVEK [Hev b 5 (55-74)]"
  Oligoclonal proliferative response: "8.2 counts per minute × 10^−3"
- chain: "TKETETEAPAAPAEGEKPAE [Hev b 5 (109-128)]"
  Oligoclonal proliferative response: "17.3 counts per minute × 10^−3"
- chain: "TPEKEEPTAAPAEPEAPAPE [Hev b 5 (46-65)]"
  Oligoclonal proliferative response: "19.2 counts per minute × 10^−3"

---

Listed here are sequences together with their documented Oligoclonal proliferative response.
Tested on: latex specific T cell lines
Test: Oligoclonal T cell proliferation assay (3H-thymidine incorporation)
Format: cell-based, human
Settings: P4 T cell line; antigen 30 μg/ml; 4 day cultures
Experimental: Latex specific T cell lines were isolated using our well established methods for the generation of allergen specific oligoclonal T cell populations (O'Hehir et al., 1987). An initial primary culture was performed for each patient to determine the optimal concentration of LAL for stimulation. […]

- chain: "AEEEKPITEAAETATTEVPV [Hev b 5 (127-146)]"
  Oligoclonal proliferative response: "1.6 counts per minute × 10^−3"
- chain: "ASEQETADATPEKEEPTAAP [Hev b 5 (37-56)]"
  Oligoclonal proliferative response: "3.2 counts per minute × 10^−3"
- chain: "APAEPEAPAPETEKAEEVEK [Hev b 5 (55-74)]"
  Oligoclonal proliferative response: "2.8 counts per minute × 10^−3"
- chain: "TPEKEEPTAAPAEPEAPAPE [Hev b 5 (46-65)]"
  Oligoclonal proliferative response: "5.3 counts per minute × 10^−3"
- chain: "TKETETEAPAAPAEGEKPAE [Hev b 5 (109-128)]"
  Oligoclonal proliferative response: "3.0 counts per minute × 10^−3"

---

Listed here are sequences together with their documented IFNγ.
system: IFNγ; assay: IFNγ production by latex specific oligoclonal T cells (ELISA on culture supernatants); assay type: cell-based, human; details: P1 T cell line; peptide 30 μg/ml; supernatant at 48 hours
property measured: IFNγ (pg/mL)

- chain: "TPEKEEPTAAPAEPEAPAPE [Hev b 5 (46-65)]"
  measured: 2
- chain: "TKETETEAPAAPAEGEKPAE [Hev b 5 (109-128)]"
  measured: 0
- chain: "APAEPEAPAPETEKAEEVEK [Hev b 5 (55-74)]"
  measured: 0
- chain: "ASEQETADATPEKEEPTAAP [Hev b 5 (37-56)]"
  measured: 0

---

Listed here are sequences together with their documented Oligoclonal proliferative response.
test system: latex specific T cell lines; assay: Oligoclonal T cell proliferation assay (3H-thymidine incorporation); type: cell-based, human; details: P5 T cell line; antigen 30 μg/ml; 4 day cultures

- chain: "AEEEKPITEAAETATTEVPV [Hev b 5 (127-146)]"
  Oligoclonal proliferative response, counts per minute × 10^−3: 2.5
- chain: "ASEQETADATPEKEEPTAAP [Hev b 5 (37-56)]"
  Oligoclonal proliferative response, counts per minute × 10^−3: 1.1
- chain: "APAEPEAPAPETEKAEEVEK [Hev b 5 (55-74)]"
  Oligoclonal proliferative response, counts per minute × 10^−3: 0.7
- chain: "TKETETEAPAAPAEGEKPAE [Hev b 5 (109-128)]"
  Oligoclonal proliferative response, counts per minute × 10^−3: 0.9
- chain: "TPEKEEPTAAPAEPEAPAPE [Hev b 5 (46-65)]"
  Oligoclonal proliferative response, counts per minute × 10^−3: 5.6

---

tested on: IL-5; experiment: IL-5 production by latex specific oligoclonal T cells (ELISA on culture supernatants); type: cell-based, human; settings: P2 T cell line; peptide 10 μg/ml; supernatant at 48 hours
Listed here are sequences together with their documented IL-5.
property measured: IL-5 (pg/mL)

- chain: "ASEQETADATPEKEEPTAAP [Hev b 5 (37-56)]"
  property measured: "IL-5"
  measured: 744
- chain: "TPEKEEPTAAPAEPEAPAPE [Hev b 5 (46-65)]"
  property measured: "IL-5"
  measured: 58
- chain: "APAEPEAPAPETEKAEEVEK [Hev b 5 (55-74)]"
  property measured: "IL-5"
  measured: 0
- chain: "TKETETEAPAAPAEGEKPAE [Hev b 5 (109-128)]"
  property measured: "IL-5"
  measured: 293

---

tested on: IFNγ; experiment: IFNγ production by latex specific oligoclonal T cells (ELISA on culture supernatants); assay type: cell-based, human; details: P4 T cell line; peptide 30 μg/ml; supernatant at 48 hours
Listed here are sequences together with their documented IFNγ.

- chain: "APAEPEAPAPETEKAEEVEK [Hev b 5 (55-74)]"
  IFNγ: "0 pg/mL"
- chain: "TPEKEEPTAAPAEPEAPAPE [Hev b 5 (46-65)]"
  IFNγ: "12 pg/mL"
- chain: "ASEQETADATPEKEEPTAAP [Hev b 5 (37-56)]"
  IFNγ: "6 pg/mL"
- chain: "TKETETEAPAAPAEGEKPAE [Hev b 5 (109-128)]"
  IFNγ: "0 pg/mL"

---

test system: IFNγ; test: IFNγ production by latex specific oligoclonal T cells (ELISA on culture supernatants); assay type: cell-based, human; settings: P1 T cell line; peptide 10 μg/ml; supernatant at 48 hours

- chain: "TPEKEEPTAAPAEPEAPAPE [Hev b 5 (46-65)]"
  IFNγ, pg/mL: 2
- chain: "APAEPEAPAPETEKAEEVEK [Hev b 5 (55-74)]"
  IFNγ, pg/mL: 0
- chain: "TKETETEAPAAPAEGEKPAE [Hev b 5 (109-128)]"
  IFNγ, pg/mL: 0
- chain: "ASEQETADATPEKEEPTAAP [Hev b 5 (37-56)]"
  IFNγ, pg/mL: 0

---

test system: latex specific T cell lines; experiment: Oligoclonal T cell proliferation assay (3H-thymidine incorporation); assay type: cell-based, human; details: P1 T cell line; antigen 30 μg/ml; 4 day cultures
property measured: Oligoclonal proliferative response

- chain: "TKETETEAPAAPAEGEKPAE [Hev b 5 (109-128)]"
  measurement target: "latex specific T cell lines"
  measured: "5.6 counts per minute × 10^−3"
- chain: "TPEKEEPTAAPAEPEAPAPE [Hev b 5 (46-65)]"
  measurement target: "latex specific T cell lines"
  measured: "19.6 counts per minute × 10^−3"
- chain: "ASEQETADATPEKEEPTAAP [Hev b 5 (37-56)]"
  measurement target: "latex specific T cell lines"
  measured: "8.5 counts per minute × 10^−3"
- chain: "APAEPEAPAPETEKAEEVEK [Hev b 5 (55-74)]"
  measurement target: "latex specific T cell lines"
  measured: "7.7 counts per minute × 10^−3"
- chain: "AEEEKPITEAAETATTEVPV [Hev b 5 (127-146)]"
  measurement target: "latex specific T cell lines"
  measured: "4.4 counts per minute × 10^−3"

---

tested on: latex specific T cell lines; assay: Oligoclonal T cell proliferation assay (3H-thymidine incorporation); format: cell-based, human; details: P4 T cell line; antigen 10 μg/ml; 4 day cultures
Listed here are sequences together with their documented Oligoclonal proliferative response.

- chain: "TPEKEEPTAAPAEPEAPAPE [Hev b 5 (46-65)]"
  Oligoclonal proliferative response: "4.4 counts per minute × 10^−3"
- chain: "ASEQETADATPEKEEPTAAP [Hev b 5 (37-56)]"
  Oligoclonal proliferative response: "3.0 counts per minute × 10^−3"
- chain: "APAEPEAPAPETEKAEEVEK [Hev b 5 (55-74)]"
  Oligoclonal proliferative response: "2.0 counts per minute × 10^−3"
- chain: "AEEEKPITEAAETATTEVPV [Hev b 5 (127-146)]"
  Oligoclonal proliferative response: "2.2 counts per minute × 10^−3"
- chain: "TKETETEAPAAPAEGEKPAE [Hev b 5 (109-128)]"
  Oligoclonal proliferative response: "2.3 counts per minute × 10^−3"

---

tested on: latex specific T cell lines; test: Oligoclonal T cell proliferation assay (3H-thymidine incorporation); type: cell-based, human; details: P1 T cell line; antigen 10 μg/ml; 4 day cultures
Listed here are sequences together with their documented Oligoclonal proliferative response.
property measured: Oligoclonal proliferative response

- chain: "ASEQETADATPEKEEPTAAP [Hev b 5 (37-56)]"
  property measured: "Oligoclonal proliferative response"
  measured: "7.1 counts per minute × 10^−3"
- chain: "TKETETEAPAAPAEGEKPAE [Hev b 5 (109-128)]"
  property measured: "Oligoclonal proliferative response"
  measured: "8.2 counts per minute × 10^−3"
- chain: "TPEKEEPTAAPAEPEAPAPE [Hev b 5 (46-65)]"
  property measured: "Oligoclonal proliferative response"
  measured: "21.3 counts per minute × 10^−3"
- chain: "AEEEKPITEAAETATTEVPV [Hev b 5 (127-146)]"
  property measured: "Oligoclonal proliferative response"
  measured: "3.3 counts per minute × 10^−3"
- chain: "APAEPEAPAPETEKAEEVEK [Hev b 5 (55-74)]"
  property measured: "Oligoclonal proliferative response"
  measured: "5.0 counts per minute × 10^−3"
